Assay: Pharmacokinetics in athymic nude rats
Format: in vivo
Conditions: athymic nude, po; rat, p.o. (3 mg/kg), plasma
Recorded Cmax by entry
Write down the numeric answer in µg/mL and omit the unit.

Some compounds with recorded Cmax:
In [3]: df
Out[3]:
                                   compound  measurement_label  measured
0  O=S(=O)(Nc1c(Nc2ccc(I)cc2F)c(F)c(F)c2ccoc12)C1(C[C@H](O)CO)CC1 [Example 1A]               Cmax      25.6
1  O=S(=O)(Nc1c(Nc2ccc(I)cc2F)c(F)c(F)c2ccoc12)C1(C[C@@H](O)CO)CC1 [Example 1B]               Cmax      25.2

[Q] Return reported Cmax; argument: O=S(=O)(Nc1c(Nc2ccc(I)cc2F)c(F)c(F)c2ccoc12)C1(CC(O)CO)CC1 (racemic) [Example 1]
[A] 9.8

Source of measurements: patent US8470878B2
